Reported Mean fluorescence intensity values for a set of binders
Target: T1, human TIM-3, full length, on cells (human, UniProt Q8TDQ0 22-301)
T1 construct: Also used here for native TIM-3 on PBMC in the functional rows; also called CHOK1-hTIM-3; HEK293-h TIM-3
T1 sequence: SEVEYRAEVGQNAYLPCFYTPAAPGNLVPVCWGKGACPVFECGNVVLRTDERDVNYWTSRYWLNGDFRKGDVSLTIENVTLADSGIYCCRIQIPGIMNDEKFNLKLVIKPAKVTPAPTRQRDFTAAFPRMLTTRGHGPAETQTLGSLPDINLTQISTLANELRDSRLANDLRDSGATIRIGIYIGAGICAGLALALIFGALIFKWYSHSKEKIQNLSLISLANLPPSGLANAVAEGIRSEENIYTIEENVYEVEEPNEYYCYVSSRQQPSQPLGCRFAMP
Assay: FACS, CHOK1-hTIM-3 cells; antibody 200 nM

1. 134H3G6 (TIM-3 antibody purified from hybridoma, chimeric antibody of Example 2) (antibody, V domains shown, From hybridoma of Harbour H2L2 transgenic mice: human variable regions, rat constant regions) VH: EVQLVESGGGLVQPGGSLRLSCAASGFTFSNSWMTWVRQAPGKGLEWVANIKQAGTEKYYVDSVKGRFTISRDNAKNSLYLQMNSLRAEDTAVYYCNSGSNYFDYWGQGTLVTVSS VL: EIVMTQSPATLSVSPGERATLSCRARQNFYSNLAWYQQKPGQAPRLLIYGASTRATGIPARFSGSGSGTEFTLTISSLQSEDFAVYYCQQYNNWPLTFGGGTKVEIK
261

input: Quick one: Mean fluorescence intensity of 7A4F10 (TIM-3 antibody purified from hybridoma, chimeric antibody of Example 2) (antibody, V domains shown, From hybridoma of Harbour H2L2 transgenic mice: human variable regions, rat constant regions) VH: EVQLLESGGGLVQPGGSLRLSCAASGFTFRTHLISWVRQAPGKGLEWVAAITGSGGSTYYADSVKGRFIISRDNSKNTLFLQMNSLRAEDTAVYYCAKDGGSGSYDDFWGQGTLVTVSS VL: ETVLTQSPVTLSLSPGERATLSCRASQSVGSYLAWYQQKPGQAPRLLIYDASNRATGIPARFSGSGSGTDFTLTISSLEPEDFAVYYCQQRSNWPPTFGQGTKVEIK ?
output: 145

input: For 18D2H2 (TIM-3 antibody purified from hybridoma, chimeric antibody of Example 2) (antibody, V domains shown, From hybridoma of Harbour H2L2 transgenic mice: human variable regions, rat constant regions) VH: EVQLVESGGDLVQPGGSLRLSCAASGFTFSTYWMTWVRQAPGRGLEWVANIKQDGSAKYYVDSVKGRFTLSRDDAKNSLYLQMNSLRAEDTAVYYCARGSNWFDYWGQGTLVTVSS VL: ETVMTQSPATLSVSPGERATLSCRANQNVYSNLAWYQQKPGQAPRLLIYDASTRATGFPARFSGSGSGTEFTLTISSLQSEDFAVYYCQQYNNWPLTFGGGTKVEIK then?
output: 212

input: For 57F4E5 (TIM-3 antibody purified from hybridoma, chimeric antibody of Example 2) (antibody, V domains shown, From hybridoma of Harbour H2L2 transgenic mice: human variable regions, rat constant regions) VH: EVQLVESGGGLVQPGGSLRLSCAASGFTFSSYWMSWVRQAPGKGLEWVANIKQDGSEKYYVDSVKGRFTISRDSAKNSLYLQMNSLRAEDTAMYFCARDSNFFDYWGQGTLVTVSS VL: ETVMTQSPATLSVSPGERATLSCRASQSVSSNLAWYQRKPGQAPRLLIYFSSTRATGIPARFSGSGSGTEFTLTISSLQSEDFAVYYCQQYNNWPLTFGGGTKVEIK then?
output: 485
